Tested on: Vero E6
measurement-protocol: cell viability relative to DMSO; higher = less toxic
measurement-parameters: 72 h; 1 nM
observation-type: cell viability (%)
Give bare numbers, in %.

Please review the following examples before continuing.
INSERT INTO results (molecule, units_label, reported_value) VALUES
  ('O=C(O)C[C@H](O)C[C@H](O)/C=C/c1c(C2CC2)nc2ccccc2c1-c1ccc(F)cc1 [pitavastatin]', '%', 93.9),
  ('CCCCCCOC(=O)NC(=N)c1ccc(NCc2nc3cc(C(=O)N(CCC(=O)OCC)c4ccccn4)ccc3n2C)cc1 [dabigatran-etexilate]', '%', 97.8),
  ('NC(=O)[C@H]1CCS[C@@H]2C[C@]3(CCCN3C(=O)Cc3ccc(NC(=O)COc4ccc(Cl)cc4Cl)cc3)C(=O)N12 [ST-2825]', '%', 101),
  ('CC(NCCc1ccc(O)cc1)C(O)c1ccc(O)cc1 (stereo not drawn) [ritodrine]', '%', 86.5),
  ('O=C(NCc1ccc(Oc2ccccc2)cc1)c1nc(-c2cc(Br)c(O)c(Br)c2)no1 [IOWH032]', '%', 102);

State recorded cell viability for all listed molecules.
1. CC[C@@]1(O)C(=O)OCc2c1cc1n(c2=O)Cc2c-1nc1cc(F)c(C)c3c1c2[C@@H](N)CC3 [exatecan-mesylate]
2. CN(C)CCC(c1ccc(Br)cc1)c1ccccn1 (stereo not drawn) [brompheniramine]
3. O=C(Nc1cccnn1)N1CCC(=Cc2cccc(Oc3ccc(C(F)(F)F)cn3)c2)CC1
4. CNC(=O)Nc1ccc(-c2nc(N3CC4CCC(C3)O4)c3cnn(C4CCC5(CC4)OCCO5)c3n2)cc1
5. CC(=O)[O-].CC(=O)[O-].N.NC1CCCCC1.[Cl-].[Cl-].[Pt+4] [satraplatin]
6. COc1cc(-n2cnc3cc(-c4ccc(Cl)cc4)sc3c2=O)ccc1OCCN1CCCC1
7. O=C(O)C1CSCN1 (stereo not drawn) [timonacic]

[110, 98.8, 96.1, 94.1, 106, 110, 97]

State recorded cell viability for all listed molecules.
1. CC(C)n1nc(C#Cc2ccccc2)c2c(N)ncnc21 [SPP86]
2. N=C(N)NCc1cccc(I)c1 [iobenguane]
3. O=c1cc(N2CCOCC2)oc2c1ccc1ccccc12 [NU-7026]
4. CCN(C)C(=O)Oc1cccc([C@H](C)N(C)C)c1 [rivastigmine]

[99.7, 100, 99, 101]

State recorded cell viability for all listed molecules.
1. O=C(O)C[C@H]1CC[C@H](c2ccc(NC(=O)c3nnc(Nc4ccc(F)c(F)c4)o3)cc2)CC1 [AZD3988]
2. N[C@@H](C[C@@H](F)C(=O)O)C(=O)O [BAY-85-8050]

1. 97.9
2. 93.6
